meta.source: paper PMC5540273

Provide the recorded %Inh for the entries that follow.
test system: CDK5; details: concentration: 1 μM,replicates: in singlicate; n = 1;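 note: KINOMEscan kinase panel screen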
One number for each entry, in %.

Example entries and their recorded answers appear below.
Give CDK5 %Inh for Cc1cc2cn[nH]c2cc1-c1cccc2c(N)c(C(N)=O)nnc12 88

Repeat for the following molecule: CCN(CC)CCCCNc1ncc2cc(-c3c(Cl)cccc3Cl)c(NC(=O)NC(C)(C)C)nc2n1 14

Repeat for the following molecule: C[C@H]1Oc2cc(cnc2N)-c2c(nn(C)c2C#N)CN(C)C(=O)c2ccc(F)cc21 11

Repeat for the following molecule: NC(=O)c1cc(-c2ccccc2)cc2c(C3CCNCC3)c[nH]c12 0

Repeat for the following molecule: COc1ccc(C[C@@H](CN)NC(=O)c2cc(Br)c(-c3ccnc4[nH]ccc34)s2)cc1.Cl.Cl 0

Hello, I would appreciate it if you could give %Inh for each entry below.
1. C[C@@H](Oc1cc(-c2cnn(C3CCNCC3)c2)cnc1N)c1c(Cl)ccc(F)c1Cl
2. CN(C)CCOc1ccc(-c2cc(-c3c[nH]nc3-c3ccccn3)ccn2)cc1
3. CC(C)Nc1cc(-c2ccc3c(N)n[nH]c3c2)nc(N)n1
4. CN(C)CC(O)COc1ccc(Nc2nccc(-c3cnn4nc(N5CCOCC5)ccc34)n2)cc1 (stereo not drawn)

1: 12; 2: 0; 3: 0; 4: 6

###

test system: AXL; conditions: concentration: 1 μM,replicates: in singlicate; n = 1
Measure: %Inh (%)
Answers are plain numbers, in %.

Example entries and their recorded answers appear below.
Please report the recorded %Inh for O=C(NCCCN1CCOC1=O)c1cnc(NCc2cc(Cl)ccc2Cl)nc1NC1CCCC1 . 61

Repeat for the following compound: NC(=O)c1cc(-c2ccccc2)cc2c(C3CCNCC3)c[nH]c12 47

Repeat for the following compound: Cl.Cl.Nc1nc(-c2ccc3c(N)n[nH]c3c2)cc(N2CCCC(NC(=O)c3ccccc3)C2)n1 (centres unmarked) 80

Repeat for the following compound: C[C@@H]1CCN(C(=O)CC#N)C[C@@H]1N(C)c1ncnc2[nH]ccc12 0

Repeat for the following compound: Nc1nc(Nc2ccccc2)cc(-c2ccc3c(N)n[nH]c3c2)n1 0

Hello, I would appreciate it if you could give %Inh for each entry below.
1. C[C@H]1Oc2cc(cnc2N)-c2c(nn(C)c2C#N)CN(C)C(=O)c2ccc(F)cc21
2. Cc1n[nH]c2ccc(-c3cc(OC[C@@H](N)Cc4ccccc4)cnc3-c3ccoc3)cc12.O=C(O)C(F)(F)F.O=C(O)C(F)(F)F
3. Cl.Cl.NC[C@H](CC1CCCCC1)NC(=O)c1cc(Br)c(-c2ccnc3[nH]ccc23)s1

[42, 0, 86]

###

tested on: STK33; details: concentration: 1 μM,replicates: in singlicate; n = 1
Provide the recorded %Inh for the entries that follow.
Give bare numbers, in %.

Example entries and their recorded answers appear below.
Please report the recorded %Inh for Cl.Cl.Nc1nc(-c2ccc3c(N)n[nH]c3c2)cc(N2CCCC(NC(=O)c3ccccc3)C2)n1 (stereo not shown) . 0

Repeat for the following molecule: NC(=O)c1cc(-c2ccccc2)cc2c(C3CCNCC3)c[nH]c12 0

Repeat for the following molecule: CC(C)N1C(=O)Cc2cc(Nc3ncc(C(F)(F)F)c(NCc4cccc(S(C)(=O)=O)c4)n3)ccc21 0

Repeat for the following molecule: O=C(NCCCN1CCOC1=O)c1cnc(NCc2cc(Cl)ccc2Cl)nc1NC1CCCC1 0

Repeat for the following molecule: C[C@@H]1CCN(C(=O)CC#N)C[C@@H]1N(C)c1ncnc2[nH]ccc12 0

Repeat for the following molecule: Cc1occc1-c1nc(N)c(OC[C@@H](N)Cc2c[nH]c3ccccc23)cc1-c1cc2c(C)n[nH]c2cn1 84

Repeat for the following molecule: Cc1ccc(-n2nc(C(C)(C)C)cc2NC(=O)Nc2ccc(OCCN3CCOCC3)c3ccccc23)cc1 21

Repeat for the following molecule: Cc1cc2cn[nH]c2cc1-c1cccc2c(N)c(C(N)=O)nnc12 0

Hello, I would appreciate it if you could give %Inh for each entry below.
1. CCN(CC)CCCCNc1ncc2cc(-c3c(Cl)cccc3Cl)c(NC(=O)NC(C)(C)C)nc2n1
2. CCn1c(-c2nonc2N)nc2c(C#CC(C)(C)O)nc(OCCN)cc21.Cl.Cl

[0, 0]

Hello, I would appreciate it if you could give %Inh for each entry below.
1. Cc1cc(C(=O)Nc2ccc(Oc3ccc4nc(NC(=O)C5CC5)cn4n3)cc2)nn1-c1ccccc1
2. Nc1nc(Nc2ccccc2)cc(-c2ccc3c(N)n[nH]c3c2)n1
3. CC(C)Nc1cc(-c2ccc3c(N)n[nH]c3c2)nc(N)n1

0
14
0

###

test system: EIF2AK1; details: concentration: 1 μM,replicates: in singlicate; n = 1
Measure: %Inh (%)
Answers are plain numbers, in %.

Example entries and their recorded answers appear below.
Please report the recorded %Inh for COc1ccc(C[C@@H](CN)NC(=O)c2cc(Br)c(-c3ccnc4[nH]ccc34)s2)cc1.Cl.Cl [GSK1389063] . 7

Repeat for the following molecule: CN(C)CC(O)COc1ccc(Nc2nccc(-c3cnn4nc(N5CCOCC5)ccc34)n2)cc1 (stereo not shown) [GW767488] 42

Repeat for the following molecule: Cl.Oc1cc(-c2nc(-c3ccccc3)[nH]c2-c2ccncc2)ccc1Cl [SB-386023] 0

Repeat for the following molecule: CC(C)Nc1cc(-c2ccc3c(N)n[nH]c3c2)nc(N)n1 [GSK2221681] 0

Hello, I would appreciate it if you could give %Inh for each entry below.
1. Cc1n[nH]c2ccc(-c3cc(OC[C@@H](N)Cc4ccccc4)cnc3-c3ccoc3)cc12.O=C(O)C(F)(F)F.O=C(O)C(F)(F)F [GSK507358]
2. Cl.Cl.NC[C@H](Cc1ccc(C(F)(F)F)cc1)NC(=O)c1cc(Br)c(-c2ccnc3[nH]ccc23)s1 [GSK1487252]
3. CNC(=O)c1ccccc1Sc1ccc2c(/C=C/c3ccccn3)n[nH]c2c1

[0, 0, 6]

Hello, I would appreciate it if you could give %Inh for each entry below.
1. CC(C)N1C(=O)Cc2cc(Nc3ncc(C(F)(F)F)c(NCc4cccc(S(C)(=O)=O)c4)n3)ccc21
2. C=CC(=O)Nc1cc2c(Nc3ccc(F)c(Cl)c3)ncnc2cc1OCCCN1CCOCC1 [GW781483]
3. Cc1cc(C(=O)Nc2ccc(Oc3ccc4nc(NC(=O)C5CC5)cn4n3)cc2)nn1-c1ccccc1
4. O=C(NCCCN1CCOC1=O)c1cnc(NCc2cc(Cl)ccc2Cl)nc1NC1CCCC1

0
11
0
0

Hello, I would appreciate it if you could give %Inh for each entry below.
1. C[C@@H]1CCN(C(=O)CC#N)C[C@@H]1N(C)c1ncnc2[nH]ccc12
2. CCN(CC)CCCCNc1ncc2cc(-c3c(Cl)cccc3Cl)c(NC(=O)NC(C)(C)C)nc2n1

1. 6
2. 46

###

test system: GSK3B; settings: concentration: 1 μM,replicates: in singlicate; n = 1
Measure: %Inh (%)
Give bare numbers, in %.

Example entries and their recorded answers appear below.
Please report the recorded %Inh for Nc1nc(Nc2ccccc2)cc(-c2ccc3c(N)n[nH]c3c2)n1 . 0

Repeat for the following molecule: Cc1occc1-c1nc(N)c(OC[C@@H](N)Cc2c[nH]c3ccccc23)cc1-c1cc2c(C)n[nH]c2cn1 97.9

Repeat for the following molecule: Cc1ccc(-n2nc(C(C)(C)C)cc2NC(=O)Nc2ccc(OCCN3CCOCC3)c3ccccc23)cc1 0

Repeat for the following molecule: CNC(=O)c1ccccc1Sc1ccc2c(/C=C/c3ccccn3)n[nH]c2c1 9

Hello, I would appreciate it if you could give %Inh for each entry below.
1. Cc1cc(C(=O)Nc2ccc(Oc3ccc4nc(NC(=O)C5CC5)cn4n3)cc2)nn1-c1ccccc1
2. Cc1ccc2c(-c3ccncc3)c(-c3ccc(F)cc3)nn2c1.Cl
3. Cc1cc2cn[nH]c2cc1-c1cccc2c(N)c(C(N)=O)nnc12
4. C[C@@H](Oc1cc(-c2cnn(C3CCNCC3)c2)cnc1N)c1c(Cl)ccc(F)c1Cl

0
16
23
36

###

tested on: MINK; construct: gene MINK1; details: concentration: 1 μM,replicates: in singlicate; n = 1
Define the label as 1 when %Inh is strictly less than 30% and as 0 in all remaining cases.

See these solved cases before continuing.
A record lists COc1ccc(C[C@@H](CN)NC(=O)c2cc(Br)c(-c3ccnc4[nH]ccc34)s2)cc1.Cl.Cl [GSK1389063] . Is its %Inh below 30%? 0

Repeat for the following compound: Cc1ccc2c(-c3ccncc3)c(-c3ccc(F)cc3)nn2c1.Cl [GW461484] 0

Repeat for the following compound: CCN(CC)CCOc1ccc(Nc2ncc3cc(-c4c(Cl)cccc4Cl)c(=O)n(C)c3n2)cc1 [SB-601273] 0

Repeat for the following compound: Cc1cc(C(=O)Nc2ccc(Oc3ccc4nc(NC(=O)C5CC5)cn4n3)cc2)nn1-c1ccccc1 1

Repeat for the following compound: O=C(NCCCN1CCOC1=O)c1cnc(NCc2cc(Cl)ccc2Cl)nc1NC1CCCC1 1

Repeat for the following compound: CN(C)CC(O)COc1ccc(Nc2nccc(-c3cnn4nc(N5CCOCC5)ccc34)n2)cc1 (centres unmarked) [GW767488] 0

Turning to the following compound.
A record lists Cc1occc1-c1nc(N)c(OC[C@@H](N)Cc2c[nH]c3ccccc23)cc1-c1cc2c(C)n[nH]c2cn1 [GSK1660450] . Is its %Inh below 30%? 0
